Source: the Human Domainome abundance scans (Beltran et al. 2025)

B1: Syntaxin-binding protein 4, residues 493 to 538; numbered along this chain, Q6ZWJ1 (parent)
chain: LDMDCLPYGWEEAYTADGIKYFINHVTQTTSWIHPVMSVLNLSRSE

Variants of: B1
TEST: abundance fitness (aPCA) (normalised: wild type 0, dead -1); higher = more abundant; growth selection in yeast, the domain comes from the species named
CONDITION_INFO: Homo sapiens
Each entry gets f if its abundance fitness stays under -0.01, and t if its abundance fitness is -0.01 or above.

Worked set:
[
  {
    "VARIANT_DESIGNATION": "H25L",
    "CLASSIFICATION": "f"
  },
  {
    "VARIANT_DESIGNATION": "T27F",
    "CLASSIFICATION": "t"
  },
  {
    "VARIANT_DESIGNATION": "T29G",
    "CLASSIFICATION": "f"
  }
]

Query: Could you tell me if the measured abundance fitness of `A16C` reaches -0.01 or more?
Response: f

Query: Kindly determine if abundance fitness recorded for `S31N` is above or exactly -0.01.
Response: f

Query: Reported abundance fitness reaches at least -0.01 for `E12K` ?
Response: f

Query: Determine whether this variant has abundance fitness no lower than -0.01: `I19M`
Response: t

Query: Test whether the variant `D17A` records abundance fitness of -0.01 or higher.
Response: f

Query: Can `M3R` be said to have abundance fitness at or above -0.01?
Response: t
